# ASSAY_PROCEDURE: chemical genetic growth profiling, strain panel (AID 1159580);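 note: tested at 20 µM; growth read once vehicle control cultures reached saturation at 30 °C; 1 = growth at the plate median or of vehicle wells; lower values mean less growth of the strain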
# RECORDED_CONDITIONS: S. cerevisiae deletion strains, growth OD, locus YPL153C, strain RAD53, hits give low values
The campaign covered roughly 5,500 compounds. About 2,000 (36%) were called active. Not shown: some 18% with an inconclusive outcome. This is one part of the list.
Response field label takes true (1) when normalized growth is strictly below 0.7 and false (0) in all other cases.

// query Determine whether this compound shows normalized growth lower than 0.7 (ties excluded): "O=S(=O)(c1ccc(Cl)cc1)N(Cc1cccnc1)Cc1ccc(Cl)cc1Cl"
// result true (1)

// query Item "O=[N+]([O-])c1ccc(S(=O)(=O)c2ccccc2)nc1S(=O)(=O)c1ccccc1" : normalized growth beneath 0.7, strictly?
// result false (0)

// query Does the reported normalized growth of the following compound sit strictly below 0.7? O=C(NCC1COc2ccccc2O1)c1ccc(Cl)cc1 (stereo not given)
// result true (1)

// query Given the entry "O=C(CSCc1csc2ccccc12)Nc1ccc(F)c(Cl)c1" , would its reported normalized growth be below 0.7?
// result false (0)

// query Say whether its normalized growth is strictly beneath 0.7. Entry: "CSc1n[nH]c(-c2cc(C(F)(F)F)cc(C(F)(F)F)c2)n1"
// result false (0)
